# Tested target: human eIF4E (human, UniProt P06730)
# Assay method text: ITC
Observable: Kd (nM)
Write the number in nM without appending the unit.

GET /value?item= GGGGUCUCUCUUGUCGAGAGGCAAGGAACCC (ssRNA, 5' cap (m7G)) [5' capped RNA] &field=Kd returns 76

Numbers sourced from paper PMC10823258.
